- Target Of Assay: T1, 4H918-bN
- T1 chain: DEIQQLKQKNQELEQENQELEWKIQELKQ
- Protocol: two-hybrid library CCNG1;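 note: natural log of median RNA to DNA barcode read ratio; higher means stronger binding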
// classify: if (interaction score < -0.8) True else False

DKNQQLKQENQELKQEIQELEWKIQELKQ [4H3782-bN] :: False
DEIQQLKQENQELKQKNQELEWEIQELKQ [4H754-bN] :: True
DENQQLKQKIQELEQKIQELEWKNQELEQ [4H1831-bN] :: False

Problem: For the binder DEIQQLEQEIQELKQEIQELEWKNQELKQ [4H72-bN] , is interaction score under -0.8?
False

Problem: For the binder DEIQQLEQKIQELKQKNQELEWEIQELKQ [4H370-bN] , is interaction score under -0.8?
True

Problem: For the binder DEIQQLKQENQELKQEIQELKWKIQELEQ [4H717-bN] , is interaction score under -0.8?
True

Problem: For the binder DEIQQLKQEIQELEQKNQELEWKNQELKQ [4H568-bN] , is interaction score under -0.8?
False
